// reported binding signal per item
# TARGET OR SYSTEM: CCHF 11E7b peptide (Crimean-Congo hemorrhagic fever virus, UniProt Q8JSZ3)
# TEST NAME: ELASA; […] (0.5 M NaCl, 10 mM Tris-HCl, 1 mM MgCl2, pH 7.5-7.6), 1 h, RT (~25 C); […]
# TEST CONTEXT: label: 5'-biotin
MEASURED ENDPOINT: binding signal (A405)

>>> assay_result("E7b-8a/10/16-19/23-25R (ssDNA) DNA: ATCCGTCACACCTGCTCTTGACACGCGTACGGGTCCGGACATGTCATAACGGACTGGTGTTGGCTCCCGTAT")
2
>>> assay_result("E7b-14R (ssDNA) DNA: ATCCGTCACACCTGCTCTTGACGCGCGAACGGGTCCGGACACGTCATAACGGAATGGTGCTGGCTCCCGTAA")
1.9
>>> assay_result("E7b-1bR (ssDNA) DNA: ATCCGTCACACCTGCTCTTTGACACGCGTACGGGTCCGGACATGTCATAACGGACTGGTGTTGGCTCCCGTAT")
2.07
>>> assay_result("E7b-1aF (ssDNA) DNA: ATACGGGAGCCAACACCATAATTCAAGAGGATTCCTCAAAATATGAAGCTTCCAGAGCAGGTGTGACGGAT")
1.83
>>> assay_result("E7b-20/21R (ssDNA) DNA: ATCCGTCACACCTGCTCTCGCTGAAGCAAGACATTATCGGGACATTGCCGTGATGGTGTTGGCTCCCGTAT")
1.78
>>> assay_result("E7b-1aR (ssDNA) DNA: ATCCGTCACACCTGCTCTGGAAGCTTCATATTTTGAGGAATCCTCTTGAATTATGGTGTTGGCTCCCGTAT")
2
>>> assay_result("E7b-5R (ssDNA) DNA: ATCCGTCACACCTGCTCTTGGGCATCAGCGGGCGATGCATGCGATAAATTAGTGTGGTGTTGGCTCCCGTAT")
1.86
>>> assay_result("E7b-6R (ssDNA) DNA: ATCCGTCACACCTGCTCTTAACCTATTTGGGTCGCGTTCTCAAAATAACTTCTGTGGTGTTGGCTCCCGTAT")
1.86
>>> assay_result("E7b-3R (ssDNA) DNA: ATCCGTCACACCTGCTCTAAAGGATCCTTCTTAGCATCACATTATGATAAGATATGGTGTTGGCTCCCGTAT")
1.94
>>> assay_result("E7b-1bF (ssDNA) DNA: ATACGGGAGCCAACACCAGTCCGTTATGACATGTCCGGACCCGTACGCGTGTCAAAGAGCAGGTGTGACGGAT")
1.88
